assay target: T1, Recombinant human EGFR-Fc (aa 1-645 of the extracellular domain of human EGFR fused to human Fc) (human, UniProt P00533 25-645)
T1 construct: range 1-645; bought from R&D Systems; also called EGFR645-Fc; EGFR-Fc (HER-1); not shown: human Fc
observed property: Kd (nM)
Write the answer as a number in nM, unit excluded.

Reference set, count: 3
binder | unit abbrev | Kd
E105-GS10-I1 pegylated (designed binder, Cys of the C-terminal Cys tail conjugated to 40 kDa branched PEG) E/I tandem 10Fn3 chain: MGVSDVPRDLEVVAATPTSLLISWDAPTSRYQYYRITYGETGGNSPVQEFTVPGGLSTATISGLKPGVDYTITVYAVTDYKPHADGPHTYHESPISINYRTEIDKGSGSGSGSGSGSGSGSGSGSVSDVPRDLEVVAATPTSLLISWSARLKVARYYRITYGETGGNSPVQEFTVPKNVYTATISGLKPGVDYTITVYAVTRFRDYQPISINYRTEIDKPCQHHHHHH | nM | 9.28
I1-GS10-E85 pegylated, His-tagged (designed binder, 40 kDa branched PEG on the Cys of the C-terminal Cys tail) MGVSDVPRDLEVVAATPTSLLISWSARLKVARYYRITYGETGGNSPVQEFTVPKNVYTATISGLKPGVDYTITVYAVTRFRDYQPISINYRTEIDKGSGSGSGSGSGSGSGSGSGSVSDVPRDLEVVAATPTSLLISWTQGSTHYQYYRITYGETGGNSPVQEFTVPGMVYTATISGLKPGVDYTITVYAVTDYFDRSTHEYKYRTTPISINYRTEIDKPCQHHHHHH | nM | 5.97
E90-GS10-I1 pegylated (designed binder, Cys of the C-terminal Cys tail conjugated to 40 kDa branched PEG) E/I tandem 10Fn3 chain: MGVSDVPRDLEVVAATPTSLLISWYWEGLPYQYYRITYGETGGNSPVQEFTVPRDVNTATISGLKPGVDYTITVYAVTDWYNPDTHEYIYHTIPISINYRTEIDKGSGSGSGSGSGSGSGSGSGSVSDVPRDLEVVAATPTSLLISWSARLKVARYYRITYGETGGNSPVQEFTVPKNVYTATISGLKPGVDYTITVYAVTRFRDYQPISINYRTEIDKPCQHHHHHH | nM | 13.5

# lookup: Kd of E85-GS10-I1 pegylated (designed binder, Cys of the C-terminal Cys tail conjugated to 40 kDa branched PEG) E/I tandem 10Fn3 chain: MGVSDVPRDLEVVAATPTSLLISWTQGSTHYQYYRITYGETGGNSPVQEFTVPGMVYTATISGLKPGVDYTITVYAVTDYFDRSTHEYKYRTTPISINYRTEIDKGSGSGSGSGSGSGSGSGSGSVSDVPRDLEVVAATPTSLLISWSARLKVARYYRITYGETGGNSPVQEFTVPKNVYTATISGLKPGVDYTITVYAVTRFRDYQPISINYRTEIDKPCQHHHHHH
4.76
